Reference for the values: ChEMBL document CHEMBL1817548

Target: Histone deacetylase 1 (Homo sapiens) (UniProt Q13547)
Sequence (Q13547 whole entry): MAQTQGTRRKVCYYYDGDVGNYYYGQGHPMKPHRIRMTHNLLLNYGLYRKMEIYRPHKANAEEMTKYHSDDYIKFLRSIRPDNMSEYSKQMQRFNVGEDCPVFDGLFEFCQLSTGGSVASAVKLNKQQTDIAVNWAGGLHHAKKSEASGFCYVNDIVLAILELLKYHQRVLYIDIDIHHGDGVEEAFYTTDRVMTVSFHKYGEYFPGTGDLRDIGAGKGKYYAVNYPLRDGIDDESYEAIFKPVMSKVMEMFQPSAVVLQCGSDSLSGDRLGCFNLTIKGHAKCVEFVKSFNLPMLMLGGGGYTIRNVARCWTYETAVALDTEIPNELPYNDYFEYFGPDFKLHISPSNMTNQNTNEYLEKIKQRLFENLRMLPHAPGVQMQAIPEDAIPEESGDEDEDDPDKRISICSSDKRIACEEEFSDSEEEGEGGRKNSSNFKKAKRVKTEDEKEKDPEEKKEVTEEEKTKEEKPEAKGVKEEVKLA
Test: Inhibition of human recombinant GST-tagged HDAC1 expressed in Sf9 cells using Fluor de Lys as substrate at 5 uM after 0.5 hrs by fluorimetry
The source made the active and inactive calls. The rule behind the calls is not given here.
The categories you may choose from are 1.0 for active, 0.0 for inactive

Worked set:
{"columns": ["Chemical structure", "Answer label"],
 "data": [
  ["O=C(NCCSSCCNC(=O)/C(Cc1ccc(O)c(I)c1)=N/O)/C(Cc1ccc(O)c(I)c1)=N/O", 1.0],
  ["O=C(NCCSSCCNC(=O)/C(Cc1cccc(O)c1)=N/O)/C(Cc1cccc(O)c1)=N/O", 1.0],
  ["O=C(NCCCCCSSCCCCCNC(=O)/C(Cc1ccc(O)c(Br)c1)=N/O)/C(Cc1ccc(O)c(Br)c1)=N/O", 0.0]
]}

Query block: Identify the outcome logged in this assay for the molecule shown: CSCCNC(=O)/C(Cc1ccc(O)c(Br)c1)=N/O
Result block: 0.0

Query block: Identify the outcome logged in this assay for the molecule shown: O=C(NCCCSSCCCNC(=O)/C(Cc1ccc(O)c(Br)c1)=N/O)/C(Cc1ccc(O)c(Br)c1)=N/O
Result block: 0.0

Query block: Identify the outcome logged in this assay for the molecule shown: O=C(NCCSSCCNC(=O)/C(Cc1ccc(O)c(Cl)c1)=N/O)/C(Cc1ccc(O)c(Cl)c1)=N/O
Result block: 1.0
